# Tested On: Human recombinant KHK-C (Homo sapiens (Human), UniProt P50053)
# Sequence (P50053 whole entry): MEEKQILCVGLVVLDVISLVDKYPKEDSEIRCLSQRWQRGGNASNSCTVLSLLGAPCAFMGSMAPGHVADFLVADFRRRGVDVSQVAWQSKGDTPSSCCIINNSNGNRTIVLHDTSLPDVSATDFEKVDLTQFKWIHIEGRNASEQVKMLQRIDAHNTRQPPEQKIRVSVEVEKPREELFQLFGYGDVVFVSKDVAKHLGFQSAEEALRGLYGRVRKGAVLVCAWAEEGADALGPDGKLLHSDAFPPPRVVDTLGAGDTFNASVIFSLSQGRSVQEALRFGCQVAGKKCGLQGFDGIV
# Assay: KHK inhibition assay, recombinant isozyme (coupled pyruvate kinase/LDH, NADH absorbance 340 nm)
# Measurement Conditions: recombinant isozyme 6 nM, fructose 2 mM, ATP 0.1 mM
Experimental Readout: pIC50
Please keep in mind that pIC50 is minus log10 of the molar concentration; only the number is needed.

Find the measured pIC50: item O=C(Cn1cc(-c2nc(N3CC[C@@H]3C(F)F)nc(C(F)F)c2F)cn1)N1CCNCC1 , target or system Human recombinant KHK-C (Homo sapiens (Human), UniProt P50053).
6.96

Find the measured pIC50: item CCc1c(-c2cnn(C3CN(C)C3)c2)nc(N2C[C@@H](O)[C@@H]2C)nc1C(F)(F)F , target or system Human recombinant KHK-C (Homo sapiens (Human), UniProt P50053).
8.68

Find the measured pIC50: item Cc1c(-c2cnn(CC(=O)N3CCNCC3)c2)nc(N2CC[C@@H]2C(F)F)nc1C(F)F , target or system Human recombinant KHK-C (Homo sapiens (Human), UniProt P50053).
7.74

Find the measured pIC50: item O=C(Cn1cc(-c2cc(C(F)F)nc(N3CC[C@@H]3C(F)F)n2)cn1)N1CCNCC1 , target or system Human recombinant KHK-C (Homo sapiens (Human), UniProt P50053).
6.50

###

Give IC50 for every item shown.
# Tested On: Rat recombinant KHK-A (Rattus norvegicus (Rat), UniProt Q02974)
# Sequence (Q02974 other isoform, or with tags, fused parts or gaps): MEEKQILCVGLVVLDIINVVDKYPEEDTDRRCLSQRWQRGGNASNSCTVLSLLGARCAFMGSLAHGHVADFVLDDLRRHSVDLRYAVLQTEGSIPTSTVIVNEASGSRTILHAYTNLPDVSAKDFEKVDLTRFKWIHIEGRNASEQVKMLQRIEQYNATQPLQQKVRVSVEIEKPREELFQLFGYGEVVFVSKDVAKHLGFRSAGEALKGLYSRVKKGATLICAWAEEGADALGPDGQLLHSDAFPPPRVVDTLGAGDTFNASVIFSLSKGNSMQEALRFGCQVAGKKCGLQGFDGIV
# Assay: KHK inhibition assay, recombinant isozyme (coupled pyruvate kinase/LDH, NADH absorbance 340 nm)
# Measurement Conditions: recombinant isozyme 6 nM, fructose 2 mM, ATP 0.1 mM
Dear colleague, please return just the value in nM, with no unit written.

Given the entry CCc1c(-c2cnn(CC(=O)N3CCNCC3)c2)nc(N2CC[C@@H]2C)nc1C(F)F [Compound A26] , report its measured IC50.
5.2

Given the entry CCc1c(-c2cnn(C3CN(C)C3)c2)nc(N2C[C@@H](O)[C@@H]2C)nc1C(F)(F)F [Compound A11] , report its measured IC50.
0.96

Given the entry COc1c(-c2cnn(C3CN(C)C3)c2)nc(N2C[C@@H](O)[C@@H]2C)nc1C(F)F [Compound A19] , report its measured IC50.
6.6

Given the entry Cc1c(-c2cnn(CC(=O)N3CCNCC3)c2)nc(N2CC[C@@H]2C(F)F)nc1C(F)F [Compound A42] , report its measured IC50.
10

###

# Tested On: Human recombinant KHK-C (Homo sapiens (Human))
# Assay: KHK inhibition assay, recombinant isozyme (coupled pyruvate kinase/LDH, NADH absorbance 340 nm)
# Measurement Conditions: recombinant isozyme 6 nM, fructose 2 mM, ATP 0.1 mM
Threshold-based label: IC50 under 20 nM gives Condition met, IC50 not under 20 nM gives Condition not met.

Please determine if Cc1c(-c2cnn(CC(=O)N3CCNCC3)c2)nc(N2CC[C@@H]2C(F)F)nc1C(F)(F)F is below 20 nM in terms of IC50.
Condition met

Please determine if Cc1c(-c2cnn(CC(=O)N3CCNCC3)c2)nc(N2CC[C@@H]2C)nc1C(F)F is below 20 nM in terms of IC50.
Condition met

Please determine if COc1c(-c2cnn(CC(=O)N3CCNCC3)c2)nc(N2CC[C@@H]2C)nc1C(F)F is below 20 nM in terms of IC50.
Condition not met

Please determine if C[C@H]1CCN1c1nc(-c2cnn(CC(=O)N3CCNCC3)c2)c(Cl)c(C(F)(F)F)n1 is below 20 nM in terms of IC50.
Condition met

Please determine if COc1c(-c2cnn(CC(=O)N3CCNCC3)c2)nc(N2CC[C@@H]2C(F)F)nc1C(F)F is below 20 nM in terms of IC50.
Condition not met

Please determine if COc1c(-c2cnn(CC(=O)N3CCNCC3)c2)nc(N2CC[C@@H]2C(F)F)nc1C(F)(F)F is below 20 nM in terms of IC50.
Condition not met

Please determine if CCc1c(-c2cnn(CC(=O)N3CCNCC3)c2)nc(N2CC[C@@H]2C)nc1C(F)F is below 20 nM in terms of IC50.
Condition not met

Please determine if Cc1c(-c2cnn(CC(=O)N3CCNCC3)c2)nc(N2CC[C@@H]2C(F)(F)F)nc1C(F)F is below 20 nM in terms of IC50.
Condition met

Please determine if O=C(Cn1cc(-c2nc(N3CC[C@@H]3C(F)F)nc(C(F)F)c2C2CC2)cn1)N1CCNCC1 is below 20 nM in terms of IC50.
Condition not met

Please determine if O=C(Cn1cc(-c2nc(N3CC[C@@H]3C(F)F)nc(C(F)F)c2Cl)cn1)N1CCNCC1 is below 20 nM in terms of IC50.
Condition met

Please determine if Cc1c(-c2cnn(C3CN(C)C3)c2)nc(N2C[C@@H](O)[C@@H]2C)nc1C(F)F is below 20 nM in terms of IC50.
Condition met

Please determine if O=C(Cn1cc(-c2nc(N3CC[C@@H]3C(F)F)nc(C(F)(F)F)c2C2CC2)cn1)N1CCNCC1 is below 20 nM in terms of IC50.
Condition not met

Please determine if COc1c(-c2cnn(C3CN(C)C3)c2)nc(N2C[C@@H](O)[C@@H]2C)nc1C(F)F is below 20 nM in terms of IC50.
Condition met

Please determine if C[C@H]1CCN1c1nc(-c2cnn(CC(=O)N3CCNCC3)c2)c(C2CC2)c(C(F)(F)F)n1 is below 20 nM in terms of IC50.
Condition not met

Please determine if COc1c(-c2cnn(CC(=O)N3CCNCC3)c2)nc(N2CC[C@@H]2C(F)(F)F)nc1C(F)(F)F is below 20 nM in terms of IC50.
Condition met

Please determine if O=C(Cn1cc(-c2nc(N3CC[C@@H]3C(F)F)nc(C(F)(F)F)c2Cl)cn1)N1CCNCC1 is below 20 nM in terms of IC50.
Condition met

Please determine if Cc1c(-c2cnn(C3CN(C)C3)c2)nc(N2C[C@@H](O)[C@@H]2C)nc1C(F)(F)F is below 20 nM in terms of IC50.
Condition met

Please determine if C[C@H]1CCN1c1nc(-c2cnn(CC(=O)N3CCNCC3)c2)cc(C(F)F)n1 is below 20 nM in terms of IC50.
Condition not met

Please determine if O=C(Cn1cc(-c2nc(N3CC[C@@H]3C(F)F)nc(C(F)(F)F)c2F)cn1)N1CCNCC1 is below 20 nM in terms of IC50.
Condition not met

Please determine if Cc1c(-c2cnn(CC(=O)N3CCNCC3)c2)nc(N2CC[C@@H]2C)nc1C(F)(F)F is below 20 nM in terms of IC50.
Condition met

Please determine if CCc1c(-c2cnn(CC(=O)N3CCNCC3)c2)nc(N2CC[C@@H]2C(F)F)nc1C(F)(F)F is below 20 nM in terms of IC50.
Condition met

Please determine if O=C(Cn1cc(-c2cc(C(F)F)nc(N3CC[C@@H]3C(F)(F)F)n2)cn1)N1CCNCC1 is below 20 nM in terms of IC50.
Condition not met

Please determine if O=C(Cn1cc(-c2cc(C(F)(F)F)nc(N3CC[C@@H]3C(F)F)n2)cn1)N1CCNCC1 is below 20 nM in terms of IC50.
Condition not met

Please determine if COc1c(-c2cnn(C3CN(C)C3)c2)nc(N2C[C@@H](O)[C@@H]2C)nc1C(F)(F)F is below 20 nM in terms of IC50.
Condition met

Please determine if O[C@@H]1CN(c2nc(-c3cnn(C4CNC4)c3)cc(C(F)(F)F)n2)[C@H]1C(F)(F)F (racemic) is below 20 nM in terms of IC50.
Condition met

Please determine if O=C(Cn1cc(-c2cc(C(F)(F)F)nc(N3CC[C@@H]3C(F)(F)F)n2)cn1)N1CCNCC1 is below 20 nM in terms of IC50.
Condition not met

Please determine if Cc1c(-c2cnn(C3CNC3)c2)nc(N2C[C@@H](O)[C@@H]2C)nc1C(F)F is below 20 nM in terms of IC50.
Condition met

Please determine if COc1c(-c2cnn(CC(=O)N3CCNCC3)c2)nc(N2CC[C@@H]2C)nc1C(F)(F)F is below 20 nM in terms of IC50.
Condition not met

Please determine if CCc1c(-c2cnn(CC(=O)N3CCNCC3)c2)nc(N2CC[C@@H]2C)nc1C(F)(F)F is below 20 nM in terms of IC50.
Condition met

Please determine if CCc1c(-c2cnn(CC(=O)N3CCNCC3)c2)nc(N2CC[C@@H]2C(F)F)nc1C(F)F is below 20 nM in terms of IC50.
Condition not met

Please determine if C[C@H]1CCN1c1nc(-c2cnn(CC(=O)N3CCNCC3)c2)c(F)c(C(F)(F)F)n1 is below 20 nM in terms of IC50.
Condition not met
